Target: p34^cdc2/cyclin B (CDC2) (Homo sapiens)
Sequence (P06493 whole entry, species assumed): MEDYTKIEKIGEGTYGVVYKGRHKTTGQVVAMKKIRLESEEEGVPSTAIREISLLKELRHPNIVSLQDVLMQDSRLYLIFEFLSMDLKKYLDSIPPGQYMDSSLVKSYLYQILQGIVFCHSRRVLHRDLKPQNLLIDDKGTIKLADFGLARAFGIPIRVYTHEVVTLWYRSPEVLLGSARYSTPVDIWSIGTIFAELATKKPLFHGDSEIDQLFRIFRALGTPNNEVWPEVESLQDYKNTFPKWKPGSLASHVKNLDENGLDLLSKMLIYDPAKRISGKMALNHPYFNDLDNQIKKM
Sequence (P14635 whole entry partner, species assumed): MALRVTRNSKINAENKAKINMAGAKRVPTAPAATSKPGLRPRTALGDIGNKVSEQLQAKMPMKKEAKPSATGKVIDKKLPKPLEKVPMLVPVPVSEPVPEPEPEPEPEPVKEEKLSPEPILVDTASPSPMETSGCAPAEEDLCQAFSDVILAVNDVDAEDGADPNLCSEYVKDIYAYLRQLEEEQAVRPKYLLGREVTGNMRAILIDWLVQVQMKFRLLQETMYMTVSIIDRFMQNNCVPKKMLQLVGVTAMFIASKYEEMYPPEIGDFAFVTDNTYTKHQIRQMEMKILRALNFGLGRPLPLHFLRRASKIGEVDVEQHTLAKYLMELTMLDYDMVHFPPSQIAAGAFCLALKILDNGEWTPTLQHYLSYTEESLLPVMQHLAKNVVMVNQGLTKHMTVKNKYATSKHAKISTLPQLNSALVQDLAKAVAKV
Test: CDK inhibition assay, p34cdc2/cyclin B kinase, histone H1 phosphorylation
Experimental: Cyclin-dependent kinases (p34^cdc2, p33^cdk2) and cyclins (cyclin B, E) are produced in Sf9 insect cells coinfected with appropriate baculoviral constructs. […] The p34^cdc2 and p33^cdk2 kinase inhibition determination involves the use of 1 mg/ml histone H1 (Sigma, type III-S) in the presence of 15 μM [γ-^32P]ATP ([…]) (Amersham) in a final volume of 20 μl. Kinase activity is determined at 30° C. in the kinase buffer. […]
Reported Metric: IC50 (µM)

Observe how each entry below is paired with its result.
CC(C)[C@H](CO)Nc1nc(Nc2cc(N)cc(Cl)c2)c2nnn(C(C)C)c2n1: 27
Cn1nnc2c(Nc3ccccc3)nc(NCCO)nc21 [2-hydroxyethylamino / anilino / methyl]: 42

A. CC(C)[C@H](CO)Nc1nc(NCc2cccc(O)c2)c2nnn(C(C)C)c2n1
B. Cn1nnc2c(NC(CO)c3ccccc3)nc(NCCO)nc21 (racemic)
Problem: Please indicate which entry, A or B , has the lower recorded IC50 value. Kindly give the label for the entry you pick.
Result: A
(A: 8 µM, B: 80 µM)

----------
melting point values for the compounds below.

Problem: Consider the compound shown here: CC(C)n1nnc2c(Nc3cccc(Cl)c3)nc(NC3CCC(N)CC3)nc21 (stereo not shown) What is its recorded melting point?
Result: 221 to 223 °C

Problem: Consider the compound shown here: NCCCNc1nc(NCc2ccccc2)c2[nH]nnc2n1 [Example 20] What is its recorded melting point?
Result: 119 to 124 °C

Problem: Consider the compound shown here: CC(C)n1nnc2c(NCc3ccccc3O)nc(N[C@H]3CC[C@H](N)CC3)nc21 [Example 12] What is its recorded melting point?
Result: 120 to 123 °C

Problem: Consider the compound shown here: Cc1nc(NCc2ccccc2)c2nnn(C(C)C)c2n1 [Example 15] What is its recorded melting point?
Result: 133 to 139 °C

Problem: Consider the compound shown here: Clc1nc(NCc2ccccc2)c2[nH]nnc2n1 [Example 18, 2-Chloro-6-benzylamino-8-azapurine] What is its recorded melting point?
Result: 122 to 124 °C

Problem: Consider the compound shown here: CC(C)C(CO)Nc1nc(NCc2cccc(O)c2)c2nnn(C(C)C)c2n1 (stereo not shown) [Example 9] What is its recorded melting point?
Result: 150 to 152 °C

Problem: Consider the compound shown here: CC(C)C(CO)Nc1nc(Nc2cccc(Cl)c2)c2nnn(C(C)C)c2n1 (stereo not shown) [Example 10] What is its recorded melting point?
Result: 160 to 163 °C

----------
target: IκB-α kinase; experiment: IκB-α kinase inhibitory activity, in vitro kinase assay
pIC50: −log10 of the molar value.
Reported Metric: pIC50

Observe how each entry below is paired with its result.
CC(C)[C@H](CO)Nc1nc(Nc2cccc(Cl)c2)c2nnn(C(C)C)c2n1: 4.10
CC(C)n1nnc2c(Nc3cccc(Cl)c3)nc(NC3CCC(N)CC3)nc21 (stereo not shown): 4.22

P. Cn1nnc2c(NCc3ccccc3)nc(NC3CCC(N)CC3)nc21 (stereo not shown)
Q. CC[C@H](CO)Nc1nc(Nc2ccc(Br)cc2)c2nnn(C(C)C)c2n1
Problem: Please indicate which entry, P or Q , has the lower recorded pIC50 value. Kindly give the label for the entry you pick.
Result: Q
